Each recorded value in this set is attributed to patent US20250282794A1.

molecular target: recombinant full length HPK-1 enzyme (Homo sapiens (Human), UniProt Q92918); assay: HPK-1 biochemical enzyme assay (ADP-Glo kinase inhibition); conditions: recombinant full length HPK-1 6.8 nM, 10 μM ATP, 12.5 μM MBP, 30 mins at 25° C.
Sequence (Q92918 whole entry, species assumed): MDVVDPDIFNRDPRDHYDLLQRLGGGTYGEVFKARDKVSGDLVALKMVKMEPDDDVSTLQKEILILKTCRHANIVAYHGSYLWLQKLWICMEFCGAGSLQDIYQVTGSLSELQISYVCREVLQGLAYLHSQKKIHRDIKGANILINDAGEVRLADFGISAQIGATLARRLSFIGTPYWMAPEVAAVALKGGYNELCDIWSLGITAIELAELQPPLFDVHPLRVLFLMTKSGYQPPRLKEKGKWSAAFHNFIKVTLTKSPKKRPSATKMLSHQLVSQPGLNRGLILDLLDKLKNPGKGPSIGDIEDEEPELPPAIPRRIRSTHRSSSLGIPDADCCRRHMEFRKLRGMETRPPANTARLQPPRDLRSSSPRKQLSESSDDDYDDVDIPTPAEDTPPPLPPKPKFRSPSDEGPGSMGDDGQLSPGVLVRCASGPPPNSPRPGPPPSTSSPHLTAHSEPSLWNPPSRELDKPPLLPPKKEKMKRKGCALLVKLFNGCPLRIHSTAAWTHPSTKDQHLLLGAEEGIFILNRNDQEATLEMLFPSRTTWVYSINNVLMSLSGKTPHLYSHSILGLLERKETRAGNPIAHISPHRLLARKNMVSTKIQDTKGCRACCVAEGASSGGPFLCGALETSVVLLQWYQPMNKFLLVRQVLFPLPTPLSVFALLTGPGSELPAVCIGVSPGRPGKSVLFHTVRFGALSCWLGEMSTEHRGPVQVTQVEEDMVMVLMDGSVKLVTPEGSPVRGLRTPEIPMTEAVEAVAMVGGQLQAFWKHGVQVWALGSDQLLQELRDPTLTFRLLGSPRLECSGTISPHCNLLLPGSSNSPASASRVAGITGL
pIC50: −log10 of the molar value.
Recorded pIC50 values for a group of molecules are listed next.

Worked examples, 6 molecules total:
molecule | pIC50
Cc1c(Nc2cc[nH]c(=O)c2C(=O)Nc2ccc(N3CCC(C(C)(C)O)CC3)cc2)cnc2c1NCCO2 | ≥ 8.00
Cc1c(Nc2cc[nH]c(=O)c2C(=O)Nc2ccc3ncsc3c2)cnc2c1NCCO2 | 7.00 to 8.00
Cc1c(Nc2cc[nH]c(=O)c2C(=O)Nc2ccc(N3CCN(C(=O)N(C)C)CC3)cc2)cnc2c1NCC(C)O2 (stereo not shown) | ≥ 8.00
Cc1cc(N2CCN(C)CC2)ccc1NC(=O)c1c(Nc2cnc3c(c2C)NCCO3)cc[nH]c1=O | 6.00 to 7.00
CCOc1cc(NC(=O)c2c(Nc3cnc4c(c3C)NCCO4)cc[nH]c2=O)ccc1N1CCN(C2CC2)CC1 | 7.00 to 8.00
Cc1c(Nc2cc[nH]c(=O)c2C(=O)Nc2ccc(NC3CCN(C)CC3)cc2)cnc2c1NCCO2 | 7.00 to 8.00

# evaluate next
Inquiry: Would you kindly share the measured pIC50 for CNc1cc(NC(=O)c2c(Nc3cnc4c(c3C)NCCO4)cc[nH]c2=O)ccc1N1CCN(C)CC1 ?
Reply text: 7.00 to 8.00
